- Tested on: A. baumannii 5075
- condition-description: disc diffusion (EUCAST), 40 μM per disk, inoculum McFarland 0.5 (~10^8 CFU/ml), 18 h at 37°C; volume per disk corrected by Mw equivalent to 40 ug of LASP-072

{"substance": "Cys-PEG-OctGly-Dab-Thr-Dab-Dab ^b -Dab-D-Phe-Leu-Dab-Dab-Thr ^b (lariat or depsi) [LASP-130]", "unit-label": "mm", "Zone of inhibition diameter, Ab 5075": 10}
{"substance": "CINA-PEG-OctGly-Dab-Thr-Dab-Dab ^b -Dab-D-Phe-Leu-Dab-Dab-Thr ^b (lariat or depsi) [LASP-026]", "unit-label": "mm", "Zone of inhibition diameter, Ab 5075": 13}
{"substance": "CINA-PEG-Val-Cys ^c -Lys-Arg-trp-Lys-Lys-Trp-Lys-Arg-Lys-Trp-Lys-Lys-Trp-Cys ^c -Val-NH2 (sidechain bridge or staple) [LASP-086]", "unit-label": "mm", "Zone of inhibition diameter, Ab 5075": 0}
{"substance": "H-Arg-Acp-Arg-Arg-Acp-Arg-Arg-Acp-Arg-Arg-Acp-Arg-PEG-Lys (CINA)-NH2 [LASP-058]", "unit-label": "mm", "Zone of inhibition diameter, Ab 5075": 0}
{"substance": "CINA-PEG-Gly-Lys-Pro-Arg-Pro-Tyr-Ser-Pro-Arg-Pro-Thr-Ser-His-Pro-Arg-Pro-Ile-Arg-Arg-NH2 [LASP-077]", "unit-label": "mm", "Zone of inhibition diameter, Ab 5075": 0}

---

- System: P. aeruginosa ATCC 27853
- condition-description: disc diffusion (EUCAST), 40 μM per disk, inoculum McFarland 0.5 (~10^8 CFU/ml), 18 h at 37°C; volume per disk corrected by Mw equivalent to 40 ug of LASP-072
Listed below: Zone of inhibition diameter, Pa ATCC 27853 values for each entry.
observation-type: Zone of inhibition diameter, Pa ATCC 27853 (mm)

{"substance": "CINA-PEG-Gly-Lys-Pro-Arg-Pro-Tyr-Ser-Pro-Arg-Pro-Thr-Ser-His-Pro-Arg-Pro-Ile-Arg-Arg-NH2 [LASP-084]", "recorded-result": 0}
{"substance": "H-Arg-Acp-Arg-Arg-Acp-Arg-Arg-Acp-Arg-Arg-Acp-Arg-PEG-Lys (CINA)-NH2 [LASP-058]", "recorded-result": 0}
{"substance": "CINA-PEG-Gly-Lys-Pro-Arg-Pro-Tyr-Ser-Pro-Arg-Pro-Thr-Ser-His-Pro-Arg-Pro-Ile-Arg-Arg-NH2 [LASP-077]", "recorded-result": 0}
{"substance": "CINA-PEG-Val-Cys ^d -Lys-Arg-trp-Lys-Lys-Trp-Lys-Arg-Lys-Trp-Lys-Lys-Trp-Cys ^d -Val-NH2 (disulfide) [LASP-088]", "recorded-result": 0}
{"substance": "Cys-PEG-OctGly-Dab-Thr-Dab-Dab ^b -Dab-D-Phe-Leu-Dab-Dab-Thr ^b (lariat or depsi) [LASP-130]", "recorded-result": 9}
{"substance": "CINA-PEG-OctGly-Dab-Thr-Dab-Dab ^b -Dab-D-Phe-Leu-Dab-Dab-Thr ^b (lariat or depsi) [LASP-026]", "recorded-result": 14}
{"substance": "CINA-PEG-Val-Cys ^c -Lys-Arg-trp-Lys-Lys-Trp-Lys-Arg-Lys-Trp-Lys-Lys-Trp-Cys ^c -Val-NH2 (sidechain bridge or staple) [LASP-086]", "recorded-result": 0}
